Parameter remaining at 0.5 h, 1 ug/ml: see the listing below.
assay: Metabolic stability in mouse plasma assessed as compound remaining at 1 ug/ml after 30 mins; format: ADME, cell-free; details: read-out: Stability
Readout: remaining at 0.5 h, 1 ug/ml (%)

1. COC(=O)[C@H](CCSC)NP(=O)(OC[C@H]1O[C@@H](n2cnc3c(=O)[nH]c(N)nc32)[C@](C)(O)[C@@H]1O)Oc1cccc2ccccc12 (stereo not given in full): 76
2. CC(C)[C@@H](NP(=O)(OC[C@H]1O[C@@H](n2cnc3c(=O)[nH]c(N)nc32)[C@](C)(O)[C@@H]1O)Oc1cccc2ccccc12)C(=O)OCc1ccccc1 (stereo not given in full): 51
3. C[C@H](NP(=O)(OC[C@H]1O[C@@H](n2cnc3c(=O)[nH]c(N)nc32)[C@](C)(O)[C@@H]1O)Oc1ccc2ccccc2c1)C(=O)OCc1ccccc1 (stereo not given in full): 0.7
4. CCCCOC(=O)[C@H](C)NP(=O)(OC[C@H]1O[C@@H](n2cnc3c(=O)[nH]c(N)nc32)[C@](C)(O)[C@@H]1O)Oc1cccc2ccccc12 (stereo not given in full): 0
5. CC(C)[C@H](NP(=O)(OC[C@H]1O[C@@H](n2cnc3c(=O)[nH]c(N)nc32)[C@](C)(O)[C@@H]1O)Oc1cccc2ccccc12)C(=O)OCc1ccccc1Cl (stereo not given in full): 69

* * *

Parameter remaining at 0.5 h, 10 µM: see the listing below.
test: Metabolic stability in human liver S9 fraction assessed as compound remaining at 10 uM after 30 mins by HPLC analysis in presence of NADP; type: ADME, subcellular; conditions: read-out: Stability
Readout: remaining at 0.5 h, 10 µM (%)

1) C[C@@]1(O)[C@H](O)[C@@H](COP(=O)(N[C@@H](Cc2ccccc2)C(=O)OCc2ccccc2)Oc2cccc3ccccc23)O[C@H]1n1cnc2c(=O)[nH]c(N)nc21 (stereo partly drawn): 0
2) C[C@H](NP(=O)(OC[C@H]1O[C@@H](n2cnc3c(=O)[nH]c(N)nc32)[C@](C)(O)[C@@H]1O)Oc1cccc2ccccc12)C(=O)OCc1ccccc1 (stereo partly drawn): 27
3) CC(C)C[C@H](NP(=O)(OC[C@H]1O[C@@H](n2cnc3c(=O)[nH]c(N)nc32)[C@](C)(O)[C@@H]1O)Oc1cccc2ccccc12)C(=O)OCc1ccccc1 (stereo partly drawn): 0

* * *

test system: Liver; assay: Dose normalized AUC in ICR mouse liver at 50 mg/kg, po by LC-MS/MS analysis; type: ADME, organism-based; set-up: dose 50 mg/kg, route oral; settings: in vivo
Readout: AUC (ng·h/g)

1) C[C@@]1(O)[C@H](O)[C@@H](CO)O[C@H]1n1cnc2c(=O)[nH]c(N)nc21: 737
2) CC(C)[C@H](NP(=O)(OC[C@H]1O[C@@H](n2cnc3c(=O)[nH]c(N)nc32)[C@](C)(O)[C@@H]1O)Oc1cccc2ccccc12)C(=O)OCc1ccccc1 (some centres undefined): 97
3) CC(C)[C@H](NP(=O)(OC[C@H]1O[C@@H](n2cnc3c(=O)[nH]c(N)nc32)[C@](C)(O)[C@@H]1O)Oc1cccc2ccccc12)C(=O)OC1CCCCC1 (some centres undefined): 77
4) CC(C)[C@H](NP(=O)(OC[C@H]1O[C@@H](n2cnc3c(=O)[nH]c(N)nc32)[C@](C)(O)[C@@H]1O)Oc1cccc2ccccc12)C(=O)OCc1ccc(Cl)cc1 (some centres undefined): 18
